Origin of values: patent US20260265358A1

Biological target: T1, Activin B (UniProt P09529 293-407)
T1 sequence (looked up): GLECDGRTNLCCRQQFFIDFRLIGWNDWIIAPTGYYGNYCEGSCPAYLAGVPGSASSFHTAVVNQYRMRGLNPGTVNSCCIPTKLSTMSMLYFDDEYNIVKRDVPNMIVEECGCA
Assay: cell-based or functional assay
RESULT TYPE: Activin B-ActRIIB SMAD IC50 pM (pM)
Output spec: scalar in pM, unitless text.

- BINDER: "anti-Activin A antibody Clone I (IgG) (antibody, V domains shown, IgG format; also called Antibody I) VH: QVQLVQSGAEVKKPGSSVKVSCKASGGTFSNYAISWVRQAPGQGLEWMGYIIPFFGTANYAQKFQGRVTITADESTSTAYMELSSLRSEDTAVYYCARGGSGYSTSWGSSLYWGQGTLVTVSS VL: EIVLTQSPGTLSLSPGERATLSCRASQSVSSSYLAWYQQKPGQAPRLLIYGASYRATGIPDRFSGSGSGTDFTLTISRLEPEDFAVYYCLQSGVFPYTFGGGTKVEIKR"
  UNIT DESCRIPTOR: "pM"
  Activin B-ActRIIB SMAD IC50 pM: 52400

Please look at the following binder next.
Req: // lookup Activin B-ActRIIB SMAD IC50 pM for anti-Activin A antibody Clone F (IgG) (antibody, V domains shown, IgG format; also called Antibody F) VH: QVQLVQSGAEVKKPGASVKVSCKASGYTFTGYHIHWVRQVPGQGLEWMGVISAYSGDTNYAQKLQGRVTMTTDTSTSTAYMELRSLRSDDTAVYYCARARDIAALGLGAFDYWGQGTLVTVSS VL: EIVLTQSPATLSVSPGERATLSCRASQSVSSNLAWYQQKPGQAPRLLIYGASDRATGIPARFSGSGSGTEFTLTISSLQSEDFAVYYCIQYSNYPRTFGGGTKVEIKR
Resp: 24900
